# Measurement Target: EPHB2 (UniProt P29323)
# Sequence (P29323 whole entry, looked up): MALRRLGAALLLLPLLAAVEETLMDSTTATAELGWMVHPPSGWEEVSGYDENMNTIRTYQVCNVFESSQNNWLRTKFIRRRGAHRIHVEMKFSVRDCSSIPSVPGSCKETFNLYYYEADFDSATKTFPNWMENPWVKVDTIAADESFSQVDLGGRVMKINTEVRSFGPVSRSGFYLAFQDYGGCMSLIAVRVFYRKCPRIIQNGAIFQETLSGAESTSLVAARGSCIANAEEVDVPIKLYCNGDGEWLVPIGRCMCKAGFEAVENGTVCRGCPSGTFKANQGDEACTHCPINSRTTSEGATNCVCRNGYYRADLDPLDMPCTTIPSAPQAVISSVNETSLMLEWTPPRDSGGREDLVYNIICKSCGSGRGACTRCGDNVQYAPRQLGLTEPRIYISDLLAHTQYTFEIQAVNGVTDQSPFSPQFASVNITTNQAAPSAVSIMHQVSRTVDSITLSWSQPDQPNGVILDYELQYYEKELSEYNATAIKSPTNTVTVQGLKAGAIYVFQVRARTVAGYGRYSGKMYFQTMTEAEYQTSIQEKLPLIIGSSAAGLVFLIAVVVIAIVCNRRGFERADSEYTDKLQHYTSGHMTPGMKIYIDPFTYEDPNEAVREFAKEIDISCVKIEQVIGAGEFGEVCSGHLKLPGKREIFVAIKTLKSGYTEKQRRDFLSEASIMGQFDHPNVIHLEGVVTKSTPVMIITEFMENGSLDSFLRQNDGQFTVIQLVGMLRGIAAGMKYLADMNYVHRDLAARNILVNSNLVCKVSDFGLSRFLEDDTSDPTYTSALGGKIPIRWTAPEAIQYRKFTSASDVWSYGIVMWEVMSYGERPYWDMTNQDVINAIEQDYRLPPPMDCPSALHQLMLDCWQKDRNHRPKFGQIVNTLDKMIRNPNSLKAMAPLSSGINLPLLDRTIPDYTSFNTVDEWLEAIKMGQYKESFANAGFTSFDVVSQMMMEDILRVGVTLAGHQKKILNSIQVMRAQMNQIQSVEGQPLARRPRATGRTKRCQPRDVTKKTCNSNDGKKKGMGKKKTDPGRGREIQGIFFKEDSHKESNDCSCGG
# Measurement Protocol: phosphorylation enrichment, bacterial display (enrichment ratio); higher = better substrate or ligand; peptides without Tyr show the background;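 further: 11-residue human phosphosite peptides and single-mutation variants displayed on the E. coli surface, counted by deep sequencing, each peptide's frequency after selection divided by its frequency in the unselected input library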;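 further: frequency after pTyr selection over input frequency; kinase dosed for 20-30% of maximal phosphorylation in three min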
Here, each record is paired with measured phosphorylation enrichment data.
Answer with a number only.

Consider the following illustrative entries.
SVVVPYEPPED [TP53_Y220_V225D] : 0.641
GLPQTYCVSGP [DYSF_Y1684] : 0.667
KIVQDYLEKFF [MMP8_Y36_T32I_YF] : 0.595
QEVLEYFMKQM [PIK3CA_Y1038_A1035V] : 0.993

Next sequence, please.
Answer with reported phosphorylation enrichment of RAADFYSQQMA [GBP6_Y334_YF] 0.468
